pIC50: −log10 of the molar value.
Consider the following pIC50 values measured on Human KLK1 (Homo sapiens (Human), UniProt P06870).
Sequence (P06870 25-262): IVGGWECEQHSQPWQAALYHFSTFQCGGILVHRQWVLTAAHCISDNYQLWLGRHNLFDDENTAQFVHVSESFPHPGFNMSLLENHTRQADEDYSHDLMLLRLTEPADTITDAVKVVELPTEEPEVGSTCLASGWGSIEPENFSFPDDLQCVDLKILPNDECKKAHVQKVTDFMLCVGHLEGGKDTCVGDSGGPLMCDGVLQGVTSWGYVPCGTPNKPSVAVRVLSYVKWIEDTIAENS
Property name: pIC50

(a) Cc1ccc2cc(Cc3cnc(C)c(C(=O)NCc4ccc5c(N)nccc5c4)c3)ccc2n1
(b) Nc1nccc2cc(CNC(=O)c3cncc(Cc4ccnc(N5CCCC5)c4)c3)ccc12
# min-compare on pIC50 between a and b Return value: the label identifying the chosen record.
b
(b: 5.32, a: 6.32)

(1) CN(C)[C@@H]1CCN(c2ccc(Cc3cncc(C(=O)NCc4ccc5c(N)nccc5c4)c3)cn2)C1 (stereo in doubt)
(2) Nc1nccc2cc(CNC(=O)c3cncc(Cc4ccc(N5CCC(CO)C5)nc4)c3)ccc12 (centres unmarked)
(3) Nc1nccc2cc(CNC(=O)c3cncc(Cc4ccc(N5CCC(F)C5)nc4)c3)ccc12 (centres unmarked)
Rank entries according to their pIC50, from the largest number down. # format: label list in the order the request specifies
1, 2, 3

###

Tested target: Human plasma kallikrein (Homo sapiens (Human))
Assay notes: Determination of the IC50 for plasma kallikrein (fluorogenic substrate H-DPro-Phe-Arg-AFC)
Test context: 37° C., read-out: IC50 (human PKal)
pIC50: −log10 of the molar value.
Property name: pIC50

Compound: COc1ccc(Cc2cncc(C(=O)NCc3ccc4c(N)nccc4c3)c2)cc1
pIC50: 6.03
//
Compound: CC1CCN(c2cc(Cc3cncc(C(=O)NCc4ccc5c(N)nccc5c4)c3)ccn2)C1 (centres unmarked)
pIC50: 6.97
//
Compound: Nc1nccc2cc(CNC(=O)c3cncc(CN4CCN(CC5CCCC5)CC4)c3)ccc12
pIC50: 4.96

(1) Nc1nccc2cc(CNC(=O)c3cncc(Cc4ccc5ncccc5c4)c3)ccc12
(2) Nc1nccc2cc(CNC(=O)c3cncc(CN4CCN(C(=O)c5ccccc5)CC4)c3)ccc12
(3) COc1ncc(Cc2ccc3nc(C)ccc3c2)cc1C(=O)NCc1ccc2c(N)nccc2c1
Reorder the items by pIC50, least to greatest. # format: label list in the order the request specifies
2, 3, 1

###

Tested target: Human KLK1 (Homo sapiens (Human), UniProt P06870)
Assay notes: Determination of the IC50 for KLK1 (fluorogenic substrate H-DVal-Leu-Arg-AFC)
Assay type: biochemical
Test context: human KLK1, 37° C.
Description: Selected compounds were further screened for inhibitory activity against the related enzyme KLK1. The ability of the compounds of formula (I) to inhibit KLK1 may be determined using the following biological assay: Determination of the IC50 for KLK1 […]
Property name: IC50 (µM)

// below: answered compounds
Compound: Cc1cnn(Cc2ccc(Cc3cncc(C(=O)NCc4ccc5c(N)nccc5c4)n3)cc2)c1 [Example 9]
Tested target: Human KLK1 (Homo sapiens (Human), UniProt P06870)
Recorded result: 5.34
--
Compound: Nc1nccc2cc(CNC(=O)c3cncc(CN4CCN(Cc5ccccc5F)CC4)c3)ccc12 [Example 44]
Tested target: Human KLK1 (Homo sapiens (Human), UniProt P06870)
Recorded result: 28
--
Compound: CC1(C)CCCN1c1cc(Cc2cncc(C(=O)NCc3ccc4c(N)nccc4c3)c2)ccn1 [Example 84]
Tested target: Human KLK1 (Homo sapiens (Human), UniProt P06870)
Recorded result: 10.7
--
Compound: CN1CCN(c2ccc(Cc3cncc(C(=O)NCc4ccc5c(N)nccc5c4)c3)cn2)CC1 [Example 64]
Tested target: Human KLK1 (Homo sapiens (Human), UniProt P06870)
Recorded result: 5.34
--
Compound: Nc1nccc2cc(CNC(=O)c3cncc(CN4CCN(CC5CCCC5)CC4)c3)ccc12 [Example 43]
Tested target: Human KLK1 (Homo sapiens (Human), UniProt P06870)
Recorded result: 17.9

(a) Cc1cnn(Cc2ccc(Cc3cc(C(=O)NCc4ccc5c(N)nccc5c4)ncn3)cc2)c1 [Example 8]
(b) Cc1ccc2cc(Cc3cncc(C(=O)NCc4ccc5c(N)nccc5c4)n3)ccc2n1 [Example 10]
# min-compare on IC50 between a and b Return value: the label identifying the chosen record.
b
(b: 3.02 µM, a: 28.2 µM)

(I) Nc1nccc2cc(CNC(=O)c3cncc(Cc4ccc5ncccc5c4)c3)ccc12 [Example 31]
(II) Nc1nccc2cc(CNC(=O)c3cncc(Cc4ccnc(N5CCC(F)(F)C5)c4)c3)ccc12 [Example 80]
Which numeric IC50 is bigger, that of I or that of II ? Return value: the label identifying the chosen record.
II

(1) Nc1nccc2cc(CNC(=O)c3cncc(Cc4ccnc(N5CCC(F)C5)c4)c3)ccc12 (stereo not drawn) [Example 82]
(2) Cc1cnn(Cc2ccc(C(O)c3cncc(C(=O)NCc4ccc5c(N)nccc5c4)c3)cc2)c1 (stereo not drawn) [Example 7]
Which numeric IC50 is bigger, that of 1 or that of 2 ? Return value: the label identifying the chosen record.
2
(2: 8.02 µM, 1: 4 µM)

###

Tested target: Human plasma kallikrein (Homo sapiens (Human), UniProt P03952)
Sequence (P03952 391-638 limits assumed): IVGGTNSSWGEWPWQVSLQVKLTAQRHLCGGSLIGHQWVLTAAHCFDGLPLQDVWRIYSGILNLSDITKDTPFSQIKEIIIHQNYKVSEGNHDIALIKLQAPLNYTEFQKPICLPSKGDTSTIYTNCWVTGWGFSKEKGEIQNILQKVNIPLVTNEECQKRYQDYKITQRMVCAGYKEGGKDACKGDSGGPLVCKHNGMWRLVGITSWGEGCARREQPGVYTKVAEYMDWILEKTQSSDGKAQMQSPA
Sequence (P03952 20-390 partner limits assumed): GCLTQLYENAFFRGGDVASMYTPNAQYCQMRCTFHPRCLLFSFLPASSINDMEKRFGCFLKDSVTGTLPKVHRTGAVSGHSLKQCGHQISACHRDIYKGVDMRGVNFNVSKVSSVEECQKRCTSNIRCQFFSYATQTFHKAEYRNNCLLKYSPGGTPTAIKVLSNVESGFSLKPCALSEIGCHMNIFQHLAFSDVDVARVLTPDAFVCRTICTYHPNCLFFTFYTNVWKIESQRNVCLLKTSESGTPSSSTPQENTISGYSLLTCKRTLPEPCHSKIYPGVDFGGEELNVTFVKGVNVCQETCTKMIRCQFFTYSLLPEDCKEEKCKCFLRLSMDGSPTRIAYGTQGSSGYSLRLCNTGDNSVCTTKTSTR
Assay notes: Determination of the IC50 for plasma kallikrein (fluorogenic substrate H-DPro-Phe-Arg-AFC)
Test context: 37° C., read-out: IC50 (human PKal)
pIC50: −log10 of the molar value.
Property name: pIC50

// below: answered compounds
Compound: CN1CCOc2cc(Cc3cncc(C(=O)NCc4ccc5c(N)nccc5c4)c3)ccc21 [Example 38]
Tested target: Human plasma kallikrein (Homo sapiens (Human), UniProt P03952)
Recorded result: 6.97
//
Compound: Nc1nccc2cc(CNC(=O)c3cncc(Cc4ccnc(N5CCC(F)C5)c4)c3)ccc12 (centres unmarked) [Example 82]
Tested target: Human plasma kallikrein (Homo sapiens (Human), UniProt P03952)
Recorded result: 7.17
//
Compound: CN1CCN(c2ccc(Cc3cncc(C(=O)NCc4ccc5c(N)nccc5c4)c3)cn2)CC1 [Example 64]
Tested target: Human plasma kallikrein (Homo sapiens (Human), UniProt P03952)
Recorded result: 6.21
//
Compound: Nc1nccc2cc(CNC(=O)c3cncc(Cc4ccccc4)c3)ccc12 [Example 23]
Tested target: Human plasma kallikrein (Homo sapiens (Human), UniProt P03952)
Recorded result: 4.40
//
Compound: Cn1cc(CN2CCN(Cc3cncc(C(=O)NCc4ccc5c(N)nccc5c4)c3)CC2)cn1 [Example 47]
Tested target: Human plasma kallikrein (Homo sapiens (Human), UniProt P03952)
Recorded result: 4.40

(a) CN1CCN(c2cc(Cc3cncc(C(=O)NCc4ccc5c(N)nccc5c4)c3)ccn2)CC1 [Example 86]
(b) Cc1cnn(Cc2ccc(Cc3cncc(C(=O)NCc4c(C)cc(CN)cc4C)n3)cc2)c1 [Example 95]
(c) Nc1nccc2cc(CNC(=O)c3cncc(CN4CCN(Cc5cccc(F)c5)CC4)c3)ccc12 [Example 46]
(d) CC(C)Oc1ccc(Cc2cncc(C(=O)NCc3ccc4c(N)nccc4c3)c2)cn1 [Example 70]
(e) Nc1nccc2cc(CNC(=O)c3cncc(Cc4ccnc(N5CCCC5=O)c4)c3)ccc12 [Example 76]
Rank entries according to their pIC50, from the largest number down. # format: label list in the order the request specifies
b, e, a, d, c

(a) Nc1nccc2cc(CNC(=O)c3cncc(Cc4ccc(N5CCOCC5)nc4)c3)ccc12 [Example 63]
(b) Nc1nccc2cc(CNC(=O)c3cncc(CN4CCN(CC(=O)O)CC4)c3)ccc12 [Example 52]
# min-compare on pIC50 between a and b Return value: the label identifying the chosen record.
b

(P) Nc1nccc2cc(CNC(=O)c3cncc(Cc4ccc(N5CCC(O)C5)nc4)c3)ccc12 (centres unmarked) [Example 59]
(Q) Nc1nccc2cc(CNC(=O)c3cncc(CN4CCN(S(=O)(=O)c5ccccc5)CC4)c3)ccc12 [Example 35]
Which numeric pIC50 is bigger, that of P or that of Q ? Return value: the label identifying the chosen record.
P

(A) Cc1ccc2cc(Cc3cncc(C(=O)NCc4ccc5c(N)nccc5c4)c3)ccc2n1 [Example 17]
(B) CN(C)[C@@H]1CCN(c2ccc(Cc3cncc(C(=O)NCc4ccc5c(N)nccc5c4)c3)cn2)C1 (stereo in doubt) [Example 69]
# min-compare on pIC50 between A and B Return value: the label identifying the chosen record.
B
(B: 6.24, A: 7.56)

(I) Cc1cnn(Cc2ccc(Cc3cncc(C(=O)NCc4c(C)cc(CN)cc4C)c3)cc2)c1 [Example 94]
(II) Nc1nccc2cc(CNC(=O)c3cncc(Cc4ccc(N5CCC(F)C5)nc4)c3)ccc12 (centres unmarked) [Example 60]
Which numeric pIC50 is bigger, that of I or that of II ? Return value: the label identifying the chosen record.
I

(P) Cc1cnn(Cc2ccc(Cc3cncc(C(=O)NCc4ccc(CN)c(F)c4)c3)cc2)c1 [Example 96]
(Q) CC1CCCN1c1cc(Cc2cncc(C(=O)NCc3ccc4c(N)nccc4c3)c2)ccn1 (centres unmarked) [Example 79]
# min-compare on pIC50 between P and Q Return value: the label identifying the chosen record.
P

(I) COCCOc1ccc(Cc2cncc(C(=O)NCc3ccc4c(N)nccc4c3)c2)cc1 [Example 34]
(II) Cc1ccc2cc(Cn3cc(C(=O)NCc4ccc5c(N)nccc5c4)ccc3=O)ccc2n1 [Example 16]
(III) COc1ccc(CN2CCN(Cc3cncc(C(=O)NCc4ccc5c(N)nccc5c4)c3)CC2)cc1 [Example 45]
(IV) CC1(C)CCN(c2ccc(Cc3cncc(C(=O)NCc4ccc5c(N)nccc5c4)c3)cn2)C1 [Example 74]
Rank entries according to their pIC50, from the largest number down. # format: label list in the order the request specifies
IV, II, I, III

(A) Nc1nccc2cc(CNC(=O)c3cncc(CN4CCN(CCCc5ccccc5)CC4)c3)ccc12 [Example 50]
(B) CN(C)[C@H]1CCN(c2ccc(Cc3cncc(C(=O)NCc4ccc5c(N)nccc5c4)c3)cn2)C1 (stereo in doubt) [Example 68]
Which numeric pIC50 is bigger, that of A or that of B ? Return value: the label identifying the chosen record.
B
(B: 6.43, A: 5.00)

This collection of values is drawn from patent US10221161B2.
